Cited source for all entries: ChEMBL document CHEMBL3997804

System: Escherichia coli BW25113
Test: Inhibition of AcrB in wild-type drug resistant Escherichia coli BW25113 assessed as potentiation of erythromycin-induced antibacterial activity after 18 hrs by checkerboard method
The source made the active and inactive calls. The rule behind the calls is not given here.
// classify into 1.0 (active), 0.0 (inactive)

# example entries with known answers
Query: Fill in: this test's call for CC(C)COc1cc(C(N)=O)cc2ccccc12 is ___
Response: 1.0

Query: Then what about the compound Cc1ccccc1COc1cc(C(N)=O)cc2ccccc12 ?
Response: 0.0

Query: Then what about the compound CCCCC(CC)COc1cc(C(N)=O)cc2ccccc12 (configuration not stated) ?
Response: 0.0

Query: Then what about the compound CCOC(=O)CCCOc1cc(C(N)=O)cc2ccccc12 ?
Response: 0.0

Query: Then what about the compound NC(=O)c1cc(OCc2ccccc2F)c2ccccc2c1 ?
Response: 0.0

Query: Then what about the compound NC(=O)c1cc(OCC2CCCC2)c2ccccc2c1 ?
Response: 0.0

Continuing:
Query: Fill in: this test's call for NC(=O)c1cc(OCc2cccc(F)c2)c2ccccc2c1 is ___
Response: 0.0

Query: Then what about the compound CCOC(=O)COc1cc(C(N)=O)cc2ccccc12 ?
Response: 0.0

Query: Then what about the compound NC(=O)c1cc(OCc2ccccc2Cl)c2ccccc2c1 ?
Response: 0.0
